Assignment: determine reported EC50 for the given binders.
Biological target: Khosta2 RBD
Test: ELISA

// M8a-15 (antibody, V domains shown) VH: QVQLQQSGPELARPGASVKLSCRASGYTVTSFGLSWMKQRTGQGLEWIGEIYPTSKNTYYNDKFRTKATLTADKSSSTAYMELRSLTSEDSAVYFCVLYDYFDYWGQGTTLTVSS VL: QIVLTQSPAIMSASPGEKVTISCSASSSVSYMYWYQQKTGSSPKPWIYRTSNLASGVPVRFSGSGSGTSYSLTISSMEAEDAATYYCQQYQSYPRTFGGGTKLEIK : EC50 value = > 10 µg/mL

get_value(item= M8a-29 (antibody, V domains shown) VH: EVQLQQSVAELVRPGASVKLSCTASGFNIKNTYMHWVKQRPEQGLEWIGRIDPSIDHTRYAPKFQGKAVITAFTSSNTAYLQLSSLTSEDTAIYYCAREGGGNYPYYYAIDYWGQGTSVTVSS VL: DIVMTQAAFSNPVTLGTSASISCRSTKSLLHSNGITYLYWYLQKPGQSPQLLIYQMSNLASGVPDRFSSSGSGTDFTLRISRVEAEDVGVYYCAQNLELPYTFGGGTKLEIK , readout=EC50) returns > 10 µg/mL

# EC50 (binder: M8a-6 (antibody, V domains shown) VH: QVQLQQPGTELVMPGASVKLSCKTSGYTFTHYWMHWVKQRPGEGLEWIGEIAPSDNYVKYNQKFKGKSTLSVDRSSSTAYMQLSSLTSEDSAVYFCARPDNSGYPVYFDYWGQGTSLTVSS VL: DIVMTQSQKFMSTSLGDRVSISCKASQDVGTTVAWYQQKPGQSPKLLIYWASTRHTGVPDRFTGTGSGTDYTLTISSVAAEDLALYYCQQHYNTPYTFGGGTKLEIE ) is > 10 µg/mL

Where do these numbers come from? They come from patent US20230250157A1.
